Tested on: RAW-Dual
Test: NF-kB SEAP reporter activity, fold change vs agonist alone; cytotoxicity flag (confluency mask): not cytotoxic; higher = enhanced NF-kB activity
Settings: agonist: Pam3CSK4 (TLR2/1) 0.1 ug/mL
In all, about 2,900 compounds were measured (“NF-kB SEAP reporter activity, fold change vs agonist alone”: median about 0.99, highest 2% from about 2.6 on). The sample holds the highest values, similar compounds and a random draw of the others, so the mix is not that of the screen.
readout.kind: NF-kB SEAP reporter activity
When you answer, write just the number.

Answered cases to consult:
OCC1OC(c2ccc(Cl)c(Cc3ccc(OC4CCOC4)cc3)c2)C(O)C(O)C1O (stereo not drawn) (library stock concentration (final ~1000-fold dilution): 10 mM) : 0.983
CC(=O)OC1CC2CCC3C(CCC4(C)C3CC([N+]3(C)CCCCC3)C4OC(C)=O)C2(C)CC1N1CCCCC1 (stereo not drawn) (library stock concentration (final ~1000-fold dilution): 10 mM) : 1.01

Next item in the queue.
Prompt line: Name the reported NF-kB SEAP reporter activity value associated with the compound CC(C)(C)NC(=O)C1CCC2C3CCC4NC(=O)C=CC4(C)C3CCC12C (stereo not drawn) (library stock concentration (final ~1000-fold dilution): 10 mM)
Response line: 0.998

====

NF-kB SEAP reporter activity values by entry
Tested on: RAW-Dual
Experiment: NF-kB SEAP reporter activity, fold change vs agonist alone; higher = enhanced NF-kB activity
Details: library stock concentration (final ~1000-fold dilution): 10 mM; cytotoxicity flag (confluency mask): not cytotoxic; agonist: MPLA (TLR4) […]
Over roughly 2,900 compounds, “NF-kB SEAP reporter activity, fold change vs agonist alone” has its median near 0.99; the highest 2% begin near 2.6. What follows is part of a selection rich in the highest values, with near analogues and random picks from the rest.
Answer with a number only.

Here are 3 compounds together with their reported answers.
CC(=O)N1CCC(Nc2cc(C(=O)NCC(O)CN3CCc4ccccc4C3)ncn2)CC1 (stereo not drawn) : 1.03
CSC1(C(=O)Nc2ccc3[nH]nc(-c4ccc(OC(C)C)nc4)c3c2)CCN(CC(=O)N2CC=C(c3ccc(-c4ncn(C)n4)cc3)CC2)C1 (stereo not drawn) : 0.321
COC(=O)C1=C(C)NC(C)=C(C(=O)OC)C1c1ccccc1[N+](=O)[O-] : 1.35

Prompt line: Identify the measured NF-kB SEAP reporter activity of CC(C)C(CO)Nc1nc(Nc2cccc(Cl)c2)c2ncn(C(C)C)c2n1 (stereo not drawn) for RAW-Dual.
Response line: 1.14

Prompt line: Look up NF-kB SEAP reporter activity with RAW-Dual for this compound: `COc1cccc(NC(=O)/C=C/c2ccc(Cl)cc2)c1`
Response line: 1.04

Prompt line: GET /values?readout=NF-kB SEAP reporter activity&system=RAW-Dual&item= `Nc1nc(NCCc2ccc(O)cc2)nc2nc(-c3ccco3)nn12`
Response line: 1.36

Prompt line: Requested read-out NF-kB SEAP reporter activity, target or system RAW-Dual, entry `CC(C)n1cnc2c(NCCc3ccc(O)cc3)nc(-c3csc4ccccc34)nc21`
Response line: 2.64

Prompt line: Short answer please: NF-kB SEAP reporter activity, RAW-Dual, entry CCCC(=O)OCOC(=O)C1=C(C)NC(C)=C(C(=O)OC)C1c1cccc(Cl)c1Cl (stereo not drawn)
Response line: 0.958

====

System: RAW-Dual
Test: NF-kB SEAP reporter activity, fold change vs agonist alone; higher = enhanced NF-kB activity
Conditions: library stock concentration (final ~1000-fold dilution): 2 mM; cytotoxicity flag (confluency mask): not cytotoxic; agonist: MPLA (TLR4) […]
The full ranking holds about 2,900 compounds; the median of “NF-kB SEAP reporter activity, fold change vs agonist alone” is about 0.99, and the highest 2% start at about 2.6. This excerpt belongs to a sample that is enriched for the highest values.
Entries and their NF-kB SEAP reporter activity values follow.

Solved entries (count: 5):
C=C(C)C1CCC2(C)CCC3(C)C(CCC4C5(C)CCC(O)C(C)(C)C5CCC43C)C12 (centres undefined) : 1.05
COc1cc(N2CCC(N3CCN(C)CC3)CC2)ccc1Nc1ncc(Cl)c(Nc2ccccc2P(C)(C)=O)n1 : 1.26
C/C=C1/C2C=C(C)CC1(N)c1ccc(=O)[nH]c1C2 (centres undefined) : 1.1
c1ccc(-c2n[nH]cc2-c2ccnc3ccccc23)nc1 : 1.15
C=CC(=O)Nc1cccc(C)c1Nc1ncc2cc(-c3c(Cl)c(OC)cc(OC)c3Cl)ccc2n1 : 1.2

Prompt line: Record request: NF-kB SEAP reporter activity value, item `CCNC1(C(N)=O)CCN(c2ncnc3c2nc(-c2ccccc2Cl)n3-c2ccc(Cl)cc2)CC1.Cl`
Response line: 0.847

Prompt line: Need NF-kB SEAP reporter activity, item `c1ccc(-c2nn3c(c2-c2ccnc4cc(OCCN5CCOCC5)ccc24)CCC3)nc1`
Response line: 1.27

Prompt line: Which NF-kB SEAP reporter activity is reported for this compound? `C#Cc1cccc(Nc2ncnc3cc(OCCOC)c(OCCOC)cc23)c1.Cl`
Response line: 1.39

Prompt line: What does the data say about its NF-kB SEAP reporter activity? Entry: `N#Cc1ncccn1`
Response line: 1
